Where do these numbers come from? They come from patent US20240018110A1.

# Tested on: LNCaP xenograft
# PROTOCOL DESCRIPTION: Biodistribution of 68Ga-labeled compounds in mice bearing LNCaP xenograft
# Format: in vivo
# EXPERIMENTAL PARAMETERS: LNCaP tumor, 1 h p.i.
MEASURED ATTRIBUTE: Biodistribution, LNCaP tumor (Avg) (% ID/g)
API: value field is a number in % ID/g; no unit string.

Hey, LNCaP xenograft data for O=C(O)CCCC(NC(=O)NC(CNC(=O)CNC(=O)C(Cc1c2ccccc2cc2ccccc12)NC(=O)C1CCC(CNC(=O)CN2CCN(CC(=O)O)CCN(CC(=O)O)CCN(CC(=O)O)CC2)CC1)C(=O)O)C(=O)O.[68Ga] (stereo not drawn) [68Ga-CCZ01198] : Biodistribution, LNCaP tumor (Avg) came out at 4.84

Hey, LNCaP xenograft data for O=C(O)CSCC(NC(=O)NC(Cc1cn(CCNC(=O)C(Cc2c3ccccc3cc3ccccc23)NC(=O)C2CCC(CNC(=O)CN3CCN(CC(=O)O)CCN(CC(=O)O)CCN(CC(=O)O)CC3)CC2)nn1)C(=O)O)C(=O)O.[68Ga] (stereo not drawn) [^68Ga-CCZ01186] : Biodistribution, LNCaP tumor (Avg) came out at 0.89

Hey, LNCaP xenograft data for O=C(O)CCCC(NC(=O)NC(CCCONC(=O)C(Cc1c2ccccc2cc2ccccc12)NC(=O)C1CCC(CNC(=O)CN2CCN(CC(=O)O)CCN(CC(=O)O)CCN(CC(=O)O)CC2)CC1)C(=O)O)C(=O)O.[68Ga] (stereo not drawn) [^68Ga-CCZ02018] : Biodistribution, LNCaP tumor (Avg) came out at 18.88

###

# Test system: LNCaP xenograft
# PROTOCOL DESCRIPTION: Biodistribution of 68Ga-labeled compounds in mice bearing LNCaP xenograft
# Format: in vivo
# EXPERIMENTAL PARAMETERS: Kidney, 1 h p.i.
MEASURED ATTRIBUTE: Biodistribution, Kidney (Avg) (% ID/g)
API: value field is a number in % ID/g; no unit string.

Reported Biodistribution, Kidney (Avg) ( O=C(O)CCCC(NC(=O)NC(COCCNC(=O)C(Cc1c2ccccc2cc2ccccc12)NC(=O)C1CCC(CNC(=O)CN2CCN(CC(=O)O)CCN(CC(=O)O)CCN(CC(=O)O)CC2)CC1)C(=O)O)C(=O)O.[68Ga] (stereo not drawn) [^68Ga-CCZ02011] ) = 4.10

Reported Biodistribution, Kidney (Avg) ( O=C(O)CCCC(NC(=O)NC(CNC(=O)CNC(=O)C(Cc1c2ccccc2cc2ccccc12)NC(=O)C1CCC(CNC(=O)CN2CCN(CC(=O)O)CCN(CC(=O)O)CCN(CC(=O)O)CC2)CC1)C(=O)O)C(=O)O.[68Ga] (stereo not drawn) [68Ga-CCZ01198] ) = 2.18

Reported Biodistribution, Kidney (Avg) ( O=C(O)CCC[C@H](OC(=O)N[C@@H](CCCCNC(=O)[C@H](Cc1c2ccccc2cc2ccccc12)NC(=O)[C@H]1CC[C@H](CNC(=O)CCc2ccc(O)c(CN(CCN(CC(=O)O)Cc3cc(CCC(=O)O)ccc3O)CC(=O)O)c2)CC1)C(=O)O)C(=O)O.[68Ga] [^68Ga-AR-113-1] ) = 27.16

###

# Test system: LNCaP xenograft
# PROTOCOL DESCRIPTION: Biodistribution of 68Ga-labeled compounds in mice bearing LNCaP xenograft
# Format: in vivo
# EXPERIMENTAL PARAMETERS: Liver, 1 h p.i.
# Excerpt: All chemicals and solvents were obtained from commercial sources, and used without further purification. PSMA-targeted peptides were synthesized using a solid phase approach on an AAPPTec (Louisville, KY) Endeavor 90 peptide synthesizer. […]
MEASURED ATTRIBUTE: Biodistribution, Liver (Avg) (% ID/g)
API: value field is a number in % ID/g; no unit string.

Reported Biodistribution, Liver (Avg) ( O=C(O)CSCC(NC(=O)NC(CNC(=O)CNC(=O)C(Cc1c2ccccc2cc2ccccc12)NC(=O)C1CCC(CNC(=O)CN2CCN(CC(=O)O)CCN(CC(=O)O)CCN(CC(=O)O)CC2)CC1)C(=O)O)C(=O)O.[68Ga] (stereo not drawn) [68Ga-CCZ01194] ) = 0.35

Reported Biodistribution, Liver (Avg) ( O=C(O)CSCC(NC(=O)NC(Cc1cn(CCNC(=O)C(Cc2c3ccccc3cc3ccccc23)NC(=O)C2CCC(CNC(=O)CN3CCN(CC(=O)O)CCN(CC(=O)O)CCN(CC(=O)O)CC3)CC2)nn1)C(=O)O)C(=O)O.[68Ga] (stereo not drawn) [^68Ga-CCZ01186] ) = 0.23

Reported Biodistribution, Liver (Avg) ( O=C(O)CCC[C@H](OC(=O)N[C@@H](CCCCNC(=O)[C@H](Cc1c2ccccc2cc2ccccc12)NC(=O)[C@H]1CC[C@H](CNC(=O)CCc2ccc(O)c(CN(CCN(CC(=O)O)Cc3cc(CCC(=O)O)ccc3O)CC(=O)O)c2)CC1)C(=O)O)C(=O)O.[68Ga] [^68Ga-AR-113-1] ) = 1.31

###

Assignment: determine reported Biodistribution, Salivary gland (Avg) for the given molecules.
# Tested on: LNCaP xenograft
# PROTOCOL DESCRIPTION: Biodistribution of 68Ga-labeled compounds in mice bearing LNCaP xenograft
# Type: in vivo
# EXPERIMENTAL PARAMETERS: Salivary gland, 1 h p.i.
# Source text: All chemicals and solvents were obtained from commercial sources, and used without further purification. PSMA-targeted peptides were synthesized using a solid phase approach on an AAPPTec (Louisville, KY) Endeavor 90 peptide synthesizer. […]
API: value field is a number in % ID/g; no unit string.

Hey, LNCaP xenograft data for O=C(O)CSCC(NC(=O)NC(Cc1ccc(NC(=O)C(Cc2c3ccccc3cc3ccccc23)NC(=O)C2CCC(CNC(=O)CN3CCN(CC(=O)O)CCN(CC(=O)O)CCN(CC(=O)O)CC3)CC2)cc1)C(=O)O)C(=O)O.[68Ga] (stereo not drawn) [^68Ga-CCZ01188] : Biodistribution, Salivary gland (Avg) came out at 1.56

Hey, LNCaP xenograft data for O=C(O)CSCC(NC(=O)NC(Cc1cn(CCNC(=O)C(Cc2c3ccccc3cc3ccccc23)NC(=O)C2CCC(CNC(=O)CN3CCN(CC(=O)O)CCN(CC(=O)O)CCN(CC(=O)O)CC3)CC2)nn1)C(=O)O)C(=O)O.[68Ga] (stereo not drawn) [^68Ga-CCZ01186] : Biodistribution, Salivary gland (Avg) came out at 0.40

Hey, LNCaP xenograft data for O=C(O)CCCC(NC(=O)NC(COCCNC(=O)C(Cc1c2ccccc2cc2ccccc12)NC(=O)C1CCC(CNC(=O)CN2CCN(CC(=O)O)CCN(CC(=O)O)CCN(CC(=O)O)CC2)CC1)C(=O)O)C(=O)O.[68Ga] (stereo not drawn) [^68Ga-CCZ02011] : Biodistribution, Salivary gland (Avg) came out at 0.27

###

# System: LNCaP xenograft
# PROTOCOL DESCRIPTION: Biodistribution of 68Ga-labeled compounds in mice bearing LNCaP xenograft
# Format: in vivo
# EXPERIMENTAL PARAMETERS: Salivary gland, 1 h p.i.
MEASURED ATTRIBUTE: Biodistribution, Salivary gland (Avg)

Reported Biodistribution, Salivary gland (Avg) ( O=C(O)CSCC(NC(=O)NC(CNC(=O)CNC(=O)C(Cc1c2ccccc2cc2ccccc12)NC(=O)C1CCC(CNC(=O)CN2CCN(CC(=O)O)CCN(CC(=O)O)CCN(CC(=O)O)CC2)CC1)C(=O)O)C(=O)O.[68Ga] (stereo not shown) [68Ga-CCZ01194] ) = 0.34 % ID/g

Reported Biodistribution, Salivary gland (Avg) ( O=C(O)CCCC(NC(=O)NC(CNC(=O)CNC(=O)C(Cc1c2ccccc2cc2ccccc12)NC(=O)C1CCC(CNC(=O)CN2CCN(CC(=O)O)CCN(CC(=O)O)CCN(CC(=O)O)CC2)CC1)C(=O)O)C(=O)O.[68Ga] (stereo not shown) [68Ga-CCZ01198] ) = 0.12 % ID/g

Reported Biodistribution, Salivary gland (Avg) ( O=C(O)CCC[C@H](OC(=O)N[C@@H](CCCCNC(=O)[C@H](Cc1c2ccccc2cc2ccccc12)NC(=O)[C@H]1CC[C@H](CNC(=O)CCc2ccc(O)c(CN(CCN(CC(=O)O)Cc3cc(CCC(=O)O)ccc3O)CC(=O)O)c2)CC1)C(=O)O)C(=O)O.[68Ga] [^68Ga-AR-113-1] ) = 1.05 % ID/g

Reported Biodistribution, Salivary gland (Avg) ( O=C(O)CCCC(NC(=O)NC(CCCONC(=O)C(Cc1c2ccccc2cc2ccccc12)NC(=O)C1CCC(CNC(=O)CN2CCN(CC(=O)O)CCN(CC(=O)O)CCN(CC(=O)O)CC2)CC1)C(=O)O)C(=O)O.[68Ga] (stereo not shown) [^68Ga-CCZ02018] ) = 0.22 % ID/g
